Examples of binders with documented Potency [nM], Jurkat human TIGIT/IL-2-luciferase RGA, n = 2 follow.
Target: T1, human TIGIT (human, UniProt Q495A1 22-244)
T1 sequence: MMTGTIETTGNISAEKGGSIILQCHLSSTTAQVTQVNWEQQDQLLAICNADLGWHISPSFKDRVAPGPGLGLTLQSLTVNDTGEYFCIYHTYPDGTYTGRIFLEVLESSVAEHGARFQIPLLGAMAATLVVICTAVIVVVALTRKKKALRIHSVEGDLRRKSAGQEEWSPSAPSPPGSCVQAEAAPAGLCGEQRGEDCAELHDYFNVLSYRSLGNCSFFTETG
Assay: cell-based or functional assay
Unit nM implied. Number only.

55G7 (antibody, V domains shown, Fully human XenoMouse antibody, tested as hybridoma supernatant or purified mAb) VH: QVQLVESGGGVVQPGRSLRLSCAASGFTFSSYGMHWVRQAPGKGLEWVALIWFDESNIYYADSVKGRFTISRDNSKNTLYLQMNSLRAEDTAVYFCARGYDLLTGYYNFDFWGLGTLVTVSA VL: QAGLTQPPSVSKGLRQTATLTCTGNTNNVGNRGAAWLQQHQGHPPKLLSYRNNNRPSGISERLSASRSGNTASLTITGLQPEDEADYYCSAWDSSLSAWVFGGGTKLTVLG ... 14.4
66H9 (antibody, V domains shown, Fully human XenoMouse antibody, tested as hybridoma supernatant or purified mAb) VH: QVQLQESGPGLVKPSQTLSLTCTVSGGSISSVYFYWNWIRQHPGKGLEWIGYIYYSGGTYYNPSLRSRVTISVDTSKNQFSLKLNSVTAADTAVYYCARGSIAAGGGYFYYNDMDVWGQGTTVTVSS VL: EIVLTQSPDFQSVTPKEKVAITCRASQSIGSSLHWYQQKPDQSPKPLIKYVSQSFSGVPSRFSGSGSGTDFTLTINSLEAEDAATYYCHQSSSLPLTFGGGTKVEIKR ... 5.8
43B7 (antibody, V domains shown, Fully human XenoMouse antibody, tested as hybridoma supernatant or purified mAb) VH: QVQLQESGPGLVKPSQTLSLTCTVSGGSISSGGYYWSWIRQHPGKGLEWIGYIYYRGGTYYNPSLRSRVTMSVDTSKNQFSLMLSSVTAADTAVYYCARTIFGVIILDNWGQGTPVTVSS VL: DIQMTQSPSSLSASVGDRVTITCRSSQSISSYLNWYQQKPGRAPKLLIHAASSLQSGVPSRFSGSGSGTDFTLTISSLQPEDFASYCCQQSYTTPPTFGGGTKVEIKR ... 2.5
39D2 (antibody, V domains shown, Fully human XenoMouse antibody, tested as hybridoma supernatant or purified mAb) VH: QVQLVQSGAEVKKPGASVKVSCKASGYTFTGYYIHWVRQAPGQGLEWMGWISPTSGATGYAQNFQGRVTMTRDTSITTAYMELSRLRSDDTAVYYCARDSNSVLYYYGMDVWGQGTTVTVSS VL: DIEMTQAPSSLSASVGDRVTITCRASQTIRRYLNWYQQKPGKAPKLLIYAASSLQNGVPSRFSGSVSGTDFTLTISSLQPEDFATYYCQQSYSTPLTFGGGTKVGIRR ... 2.8

Which value of Potency [nM], Jurkat human TIGIT/IL-2-luciferase RGA, n = 2 has been reported for 28B8 (antibody, V domains shown, Fully human XenoMouse antibody, tested as hybridoma supernatant or purified mAb) VH: QVQLQESGPGLVKPSETLFLTCTVSGGSVTNYYWSWIRQPAGKGLEWIGRIYTSGSTYYNPSLKSRVTMSLDTSKNQFSLRLSSVTAADTAVYYCAREGFTMVRGVMGAFDIWGQGTMVTVSS VL: DIQMTQSPSSLSASVGDRVTITCRASQSIRRYLNWYQQIPGKAPKFLIYDASSLQSGVPSRFSGSGSGTDFTLTISSLQPEDFATYYCQQSYSTPPTFGQGTKVEIKR in the records?
2.1
